test: Insulinotropic activity in rat RIN5F cells assessed as glucose dependent insulin secretion per ug of total protein at 0.1 uM; assay type: functional
assay_readout: Activity
Please provide the amount together with its unit, number first.

Below are worked cases with known answers.
| molecule | Activity |
| --- | --- |
| CCCCNC(=O)NS(=O)(=O)c1ccc(C)cc1 [TOLBUTAMIDE] | 20 pg/h |
| CCc1sc2ncccc2c1C1=NCCN1 | 13 pg/h |

response.value for c1cnc2[nH]cc(C3=NCCN3)c2c1 (field: Activity) = 12.1 pg/h

response.value for Clc1cnc2scc(C3=NCCN3)c2c1 (field: Activity) = 12.6 pg/h

response.value for c1ccc(-c2[nH]c3ncccc3c2C2=NCCN2)cc1 (field: Activity) = 14.1 pg/h

response.value for Clc1cnc2[nH]c(C3CCCCC3)c(C3=NCCN3)c2c1 (field: Activity) = 12.6 pg/h

response.value for c1cnc2scc(C3=NCCN3)c2c1 (field: Activity) = 12.2 pg/h

response.value for CCc1[nH]c2ncccc2c1C1=NCCN1 (field: Activity) = 13.3 pg/h
